Tested on: Saccharomyces cerevisiae;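 note: PSI is a weighted mean of sequencing reads over stability bins, variants kept only with over 10 reads, mCherry proximal and sfGFP distal, peptide attached via GGGS linker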
Assay: protein stability index of tFT-peptide fusion (C-terminal peptide) (PSI (0-1 scale)); higher = more stable (slower turnover)
Conditions: genetic background: wild type; temperature: 30 C
Tick 1 if protein stability index is 0.7 or greater. Tick -1 if protein stability index is less than 0.7.

Some solved cases for reference:
| ORDERED RESIDUES | SYSTEM UNDER TEST | CATEGORY LABEL |
| --- | --- | --- |
| QTYQQSVKNRDD | Saccharomyces cerevisiae | -1 |
| LSPLIHSPRPFA | Saccharomyces cerevisiae | 1 |
| GPGVGYGRWRGG | Saccharomyces cerevisiae | -1 |
| SASRSLFLSRSP | Saccharomyces cerevisiae | -1 |
| RLPPPSPSLPPL | Saccharomyces cerevisiae | 1 |

Next sequence, please.
Exercise: Test whether the sequence IICSKLHSPLVV records protein stability index of 0.7 or higher.
Key: -1
